List of pIC50 values.
target: Syk (Homo sapiens, UniProt P43405); construct: purchased Carna Biosciences; test: Syk HTRF assay; format: biochemical; conditions: IC50 activity level, read-out: Activity Level
pIC50: −log10 of the molar value.

Reference set, count: 5
INSERT INTO measurements (compound, assayed_system, value_kind, result) VALUES
  ('NCCCc1cccc2nc(Nc3ccccc3)nn12', 'Syk (Homo sapiens, UniProt P43405)', 'pIC50', '5.00 to 6.00'),
  ('NC(=O)[C@H]1CC[C@H](Oc2cccc3nc(Nc4ccc(C(F)(F)F)cc4)nn23)CC1 (stereo in doubt)', 'Syk (Homo sapiens, UniProt P43405)', 'pIC50', '5.00 to 6.00'),
  ('O[C@H]1CC[C@@H](Cc2cccc3nc(Nc4ccc(C(F)(F)F)cc4)nn23)CC1', 'Syk (Homo sapiens, UniProt P43405)', 'pIC50', '6.60 to 11.30'),
  ('O[C@H]1CC[C@@H](Oc2cccc3nc(Nc4ccc(F)cc4)nn23)CC1', 'Syk (Homo sapiens, UniProt P43405)', 'pIC50', '5.00 to 6.00'),
  ('c1cc(N[C@@H]2CCCNC2)n2nc(Nc3ccc4c(c3)CNC4)nc2c1', 'Syk (Homo sapiens, UniProt P43405)', 'pIC50', '6.60 to 11.30');

## Task Endpoint output: pIC50 of Cc1nnc2cc(Nc3nc4cccc(CC5CCOCC5)n4n3)ccn12 . Value?
## Result 5.00 to 6.00

## Task Value lookup for pIC50; key = Nc1nccc2ccc(-c3cccc4nc(Nc5ccccc5)nn34)cc12
## Result 6.00 to 6.30

## Task // lookup pIC50 for NC(=O)c1nc2ccc(-c3cccc4nc(Nc5ccc(C(F)(F)F)cc5)nn34)cc2[nH]1
## Result 6.60 to 11.30

## Task pIC50 for CC(CO)Cc1cccc2nc(Nc3ccccc3)nn12 (stereo in doubt) ?
## Result 6.30 to 6.60

## Task # query: pIC50 of entry CN(C)c1cccc2nc(Nc3ccc4c(c3)NC(=O)C4(C)C)nn12
## Result 6.60 to 11.30

* * *

target: Syk (Homo sapiens, UniProt P43405); construct: purchased Carna Biosciences; assay: Syk HTRF assay; format: biochemical; conditions: IC50 activity level, read-out: Activity Level
# IC50 per record follows

Use these answered entries as a reference point.
INSERT INTO measurements (compound, value_kind, result) VALUES
  ('Cn1ncc2cc(Nc3nc4cccc(CC5CCOCC5)n4n3)ccc21 [Example 550]', 'IC50', '0.005 to 250 nM'),
  ('OC1CCC(Nc2cccc3nc(Nc4ccccc4)nn23)CC1 (stereo in doubt) [Example 470]', 'IC50', '1000 to 10000 nM'),
  ('c1ccc(Nc2nc3cccc(NC4CCNCC4)n3n2)cc1 [Example 523]', 'IC50', '500 to 1000 nM'),
  ('Nc1noc2ccc(-c3cccc4nc(Nc5ccccc5)nn34)cc12 [Example 457]', 'IC50', '0.005 to 250 nM'),
  ('Cc1cc(Nc2nc3cccc(CC4CCOCC4)n3n2)cnc1N1CCOCC1 [Example 535]', 'IC50', '500 to 1000 nM');

## Task Report IC50 for c1ccc(Nc2nc3cccc(-c4ccc5nc[nH]c5c4)n3n2)cc1 [Example 514] tested on Syk (Homo sapiens, UniProt P43405).
## Result 0.005 to 250 nM

## Task Identify the measured IC50 of OC[C@H](Nc1cccc2nc(Nc3ccc(C(F)(F)F)cc3)nn12)c1ccccc1 [Example 412] for Syk (Homo sapiens, UniProt P43405).
## Result 1000 to 10000 nM

## Task Give recorded IC50 with Syk (Homo sapiens, UniProt P43405) for the following compound: Cc1conc1-c1cccc2nc(Nc3ccccc3)nn12 [Example 435]
## Result 1000 to 10000 nM

## Task Hello, I am looking for reported IC50 with Syk (Homo sapiens, UniProt P43405) for Cc1n[nH]c2cc(Nc3nc4cccc(CC(C)CO)n4n3)ccc12 (stereo in doubt) [Example 555] . Could you help?
## Result 0.005 to 250 nM

## Task Give Syk (Homo sapiens, UniProt P43405) IC50 for c1ccc(Nc2nc3cccc(Nc4ccccc4)n3n2)cc1 [Example 529]
## Result 250 to 500 nM

## Task Observed IC50 on Syk (Homo sapiens, UniProt P43405) for CNc1nc2cc(-c3cccc4nc(Nc5ccccc5)nn34)ccc2[nH]1 [Example 481] , please.
## Result 0.005 to 250 nM
